# credit: patent EP0481802A1

target: recombinant HIV reverse transcriptase (HIV RTR) (Human immunodeficiency virus type 1 group M subtype B, UniProt P04585); construct: recombinant HIV reverse transcriptase (HIV RTR); experiment: Reverse Transcriptase Assay; conditions: incorporation of [³H] dGMP into acid-precipitable cDNA, dGTP and poly r(C)·oligo d(G)12-18 at Km, 37°C for 45 minutes; read-out: IC₅₀
pIC50: −log10 of the molar value.
MEASURE: pIC50

{"COMPOUND": "CCc1cc(NCc2nc3ccccc3o2)c(=O)[nH]c1CO [L-697,914]", "MEASURE": "pIC50", "VALUE_OBSERVED": "~7.03"}

Moving on to the next compound.
Determine from records and report pIC50 for Cc1[nH]c(=O)c(NCc2nc3ccccc3o2)cc1C(C)O [L-697,913]
≤ 3.52
